Where these numbers come from: patent US11548860B2

# experimental.target: CYP17A1 (Homo sapiens (Human), UniProt P05093)
# Sequence (P05093 whole entry): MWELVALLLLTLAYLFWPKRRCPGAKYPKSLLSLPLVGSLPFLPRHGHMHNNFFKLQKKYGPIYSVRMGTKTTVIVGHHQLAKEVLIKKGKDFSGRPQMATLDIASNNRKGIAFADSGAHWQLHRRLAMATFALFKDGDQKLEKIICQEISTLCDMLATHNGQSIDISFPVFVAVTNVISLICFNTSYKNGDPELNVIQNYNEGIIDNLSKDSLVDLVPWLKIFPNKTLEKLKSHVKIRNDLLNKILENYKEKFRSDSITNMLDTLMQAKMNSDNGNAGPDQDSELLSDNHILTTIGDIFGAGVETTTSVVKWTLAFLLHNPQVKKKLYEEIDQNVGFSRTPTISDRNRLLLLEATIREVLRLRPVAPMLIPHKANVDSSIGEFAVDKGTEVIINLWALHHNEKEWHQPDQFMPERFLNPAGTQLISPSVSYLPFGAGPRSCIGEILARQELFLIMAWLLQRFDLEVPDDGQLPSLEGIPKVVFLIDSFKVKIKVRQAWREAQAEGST
# procedure.summary: CYP17A1 inhibition, CYP17A1 bactosomes, progesterone substrate, LC-MS/MS
# Format: biochemical
# experimental.context: Table 2
reported.property: inhibitory potency of CYP17A1, level in words

compound: O=C1COc2cc(NCc3cccc(NC(=O)c4ccccc4Cl)c3)c(Cl)cc2N1
test.value: micromolar levels
//
compound: O=C1COc2cc(NCc3cccc(C(=O)Nc4cccnc4)c3)ccc2N1
test.value: micromolar levels
//
compound: CCc1ccc(NC(=O)c2cc(C(=O)c3cc(OC)ccc3O)coc2=N)cc1
test.value: micromolar levels
//
compound: O=C(CSc1nnc(-c2c[nH]c3ccccc23)n1Cc1ccco1)NCc1ccccc1Cl
test.value: micromolar levels
//
compound: CCCC(=O)Nc1ccc(C(=O)C(C)OC(=O)c2n[nH]c3ccccc23)cc1 (racemic)
test.value: micromolar levels
//
compound: O=C(Nc1ccccc1O)c1ccc(Oc2cccc(C(=O)Nc3ccccc3O)c2)cc1
test.value: micromolar levels

* * *

Reported pIC50 values follow for various compounds
# experimental.target: CYP2C9 (Homo sapiens (Human), UniProt P11712)
# Sequence (P11712 whole entry): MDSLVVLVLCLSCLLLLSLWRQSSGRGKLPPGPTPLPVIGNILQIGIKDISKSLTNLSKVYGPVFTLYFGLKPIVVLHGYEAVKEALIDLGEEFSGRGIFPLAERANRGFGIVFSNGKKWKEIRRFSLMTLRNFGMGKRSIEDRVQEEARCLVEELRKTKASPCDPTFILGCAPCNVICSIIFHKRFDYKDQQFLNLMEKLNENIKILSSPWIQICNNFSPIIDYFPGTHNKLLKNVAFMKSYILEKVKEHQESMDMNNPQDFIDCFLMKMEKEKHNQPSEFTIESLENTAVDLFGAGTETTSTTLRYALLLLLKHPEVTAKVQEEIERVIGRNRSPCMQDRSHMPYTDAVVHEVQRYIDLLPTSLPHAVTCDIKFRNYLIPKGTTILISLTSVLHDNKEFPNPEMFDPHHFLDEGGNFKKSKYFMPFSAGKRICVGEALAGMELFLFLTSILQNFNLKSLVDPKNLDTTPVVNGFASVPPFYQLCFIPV
# procedure.summary: CYP inhibition against major 5 human liver CYPs in E. coli CYPEX membranes: CYP2C9 (diclofenac)
# Type: in vitro ADME
# experimental.context: bactosome mix, 10 min, 37° C.
pIC50: −log10 of the molar value.
reported.property: pIC50

compound: O=C1COc2cc(NC(=O)c3cc(NC(=O)c4cn[nH]c4)ccc3Cl)ccc2N1
reported.property: pIC50
test.value: 4.65
//
compound: CCCC(=O)Nc1ccc(C(=O)C(C)OC(=O)c2n[nH]c3ccccc23)cc1 (racemic)
reported.property: pIC50
test.value: 5.60

* * *

# experimental.target: CYP2C19 (Homo sapiens (Human), UniProt P33261)
# Sequence (P33261 whole entry): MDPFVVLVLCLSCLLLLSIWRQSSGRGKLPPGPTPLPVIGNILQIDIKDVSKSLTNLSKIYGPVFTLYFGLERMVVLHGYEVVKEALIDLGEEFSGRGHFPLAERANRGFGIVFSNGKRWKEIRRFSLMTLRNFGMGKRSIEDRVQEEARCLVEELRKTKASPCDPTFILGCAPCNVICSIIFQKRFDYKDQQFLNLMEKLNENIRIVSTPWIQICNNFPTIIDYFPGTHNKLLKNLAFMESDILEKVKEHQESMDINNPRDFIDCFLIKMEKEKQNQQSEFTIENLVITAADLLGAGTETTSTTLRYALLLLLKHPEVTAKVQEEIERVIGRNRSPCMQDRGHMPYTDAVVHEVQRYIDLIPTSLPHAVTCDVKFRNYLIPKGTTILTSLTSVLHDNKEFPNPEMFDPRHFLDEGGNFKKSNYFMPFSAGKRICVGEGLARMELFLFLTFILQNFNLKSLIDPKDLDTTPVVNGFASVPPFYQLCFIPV
# procedure.summary: CYP inhibition against major 5 human liver CYPs in E. coli CYPEX membranes: CYP2C19 ((S)-mephenytoin)
# Type: in vitro ADME
# experimental.context: bactosome mix, 10 min, 37° C.
pIC50: −log10 of the molar value.
Reported pIC50 is given for each of the following compounds.

compound: CCCC(=O)Nc1ccc(C(=O)C(C)OC(=O)c2n[nH]c3ccccc23)cc1 (racemic)
experimental.target: CYP2C19 (Homo sapiens (Human), UniProt P33261)
comparative.sign: =
pIC50: 4.39
//
compound: O=C1COc2cc(NC(=O)c3cc(NC(=O)c4cn[nH]c4)ccc3Cl)ccc2N1
experimental.target: CYP2C19 (Homo sapiens (Human), UniProt P33261)
comparative.sign: <
pIC50: 4.30

* * *

Entries and their measured IC50 follow.
# experimental.target: CYP1A2 (Homo sapiens (Human), UniProt P05177)
# Sequence (P05177 whole entry): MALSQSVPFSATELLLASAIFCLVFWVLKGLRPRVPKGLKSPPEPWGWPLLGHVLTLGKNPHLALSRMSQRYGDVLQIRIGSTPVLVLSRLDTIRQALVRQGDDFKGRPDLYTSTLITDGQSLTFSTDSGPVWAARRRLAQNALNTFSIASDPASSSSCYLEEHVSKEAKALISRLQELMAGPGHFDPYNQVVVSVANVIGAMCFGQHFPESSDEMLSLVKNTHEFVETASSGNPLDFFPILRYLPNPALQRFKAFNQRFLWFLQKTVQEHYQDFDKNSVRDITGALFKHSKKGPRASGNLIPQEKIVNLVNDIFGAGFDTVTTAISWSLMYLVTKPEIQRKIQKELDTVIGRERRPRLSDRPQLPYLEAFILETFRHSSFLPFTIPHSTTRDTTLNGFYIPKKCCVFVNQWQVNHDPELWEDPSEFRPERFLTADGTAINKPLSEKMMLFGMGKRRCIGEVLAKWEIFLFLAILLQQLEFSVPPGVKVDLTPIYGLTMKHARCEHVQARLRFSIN
# procedure.summary: CYP inhibition against major 5 human liver CYPs in E. coli CYPEX membranes: CYP1A2 (tacrine)
# Format: in vitro ADME
# experimental.context: bactosome mix, 10 min, 37° C.
# Protocol: Test compounds and control inhibitors were prepared as stocks in DMSO from the solid compound. The stocks were diluted in 0.1 M phosphate buffer (pH 7.4) at four times the final concentration prior to addition into the incubation tubes. The final DMSO concentration was 1%. […] Catalogue number CYP/XG001, Batch XG001001). […] Activity of each isoform was assessed by measuring the appearance of an isoform-specific metabolite. […] The supernatants were transferred to a 96 well-plate and analysed by LC-MS/MS. […]
reported.property: IC50

compound: O=C1COc2cc(NC(=O)c3cc(NC(=O)c4cn[nH]c4)ccc3Cl)ccc2N1
experimental.target: CYP1A2 (Homo sapiens (Human), UniProt P05177)
reported.property: IC50
test.value: > 50 µM

compound: CCCC(=O)Nc1ccc(C(=O)C(C)OC(=O)c2n[nH]c3ccccc23)cc1 (racemic)
experimental.target: CYP1A2 (Homo sapiens (Human), UniProt P05177)
reported.property: IC50
test.value: > 50 µM
